Origin of values: patent US6258830A

# Protocol Notes: Solubility of AGN in various aqueous solutions at 35° ± 0.5° C. (Table I)
# Assay type: physicochemical
# Measurement Context: organic solvent or mixture; 60% Ethanol/Water, 35° C.
Observed Property: solubility (mg/mL)

compound_string=CCOC(=O)c1ccc(C#Cc2ccc3c(c2)C(C)(C)CCS3)nc1 test_value=22.2

---

# Protocol Notes: Saturated solubility of AGN in the vehicle of the gels (HPLC), with Student's t-test against gel B
# Type: physicochemical
# Measurement Context: gel vehicle with propionic acid, hexylene glycol 2%, polysorbate 40 0.2%, poloxamer 407 0.0%; propionic acid for carbomer
Observed Property: solubility (µg/mL)

compound_string=CCOC(=O)c1ccc(C#Cc2ccc3c(c2)C(C)(C)CCS3)nc1 unit_string=µg/mL test_value=75.9

---

# Protocol Notes: Solubility of AGN in various aqueous solutions at 35° ± 0.5° C. (Table I)
# Format: physicochemical
# Measurement Context: 0.07% Polysorbate 40, 35° C.
Observed Property: solubility (µg/mL)

compound_string=CCOC(=O)c1ccc(C#Cc2ccc3c(c2)C(C)(C)CCS3)nc1 test_value=3.7

---

# Protocol Notes: Saturated solubility of AGN in the vehicle of the gels (HPLC), with Student's t-test against gel B
# Format: physicochemical
# Measurement Context: gel vehicle with propionic acid, hexylene glycol 2%, polysorbate 40 0.0%, poloxamer 407 0.0%; propionic acid for carbomer
Observed Property: solubility

compound_string=CCOC(=O)c1ccc(C#Cc2ccc3c(c2)C(C)(C)CCS3)nc1 test_value="20.9 µg/mL"

---

# Protocol Notes: Solubility of AGN in various aqueous solutions at 35° ± 0.5° C. (Table I)
# Format: physicochemical
# Measurement Context: 4% Oleth-20/Water, 35° C.
Observed Property: solubility (µg/mL)

molecule="CCOC(=O)c1ccc(C#Cc2ccc3c(c2)C(C)(C)CCS3)nc1 [AGN]" unit_string=µg/mL test_value=311

---

# Protocol Notes: Saturated solubility of AGN in the vehicle of the gels (HPLC), with Student's t-test against gel B
# Type: physicochemical
# Measurement Context: gel vehicle with propionic acid, hexylene glycol 0%, polysorbate 40 0.0%, poloxamer 407 0.4%; propionic acid for carbomer
Observed Property: solubility (µg/mL)

compound_string=CCOC(=O)c1ccc(C#Cc2ccc3c(c2)C(C)(C)CCS3)nc1 observed_property=solubility test_value=87.4

---

# Protocol Notes: Saturated solubility of AGN in the vehicle of the gels (HPLC), with Student's t-test against gel B
# Format: physicochemical
# Measurement Context: gel vehicle with propionic acid, hexylene glycol 2%, polysorbate 40 0.4%, poloxamer 407 0.0%; propionic acid for carbomer
Observed Property: solubility (mg/mL)

compound="CCOC(=O)c1ccc(C#Cc2ccc3c(c2)C(C)(C)CCS3)nc1 [AGN]" test_value=0.098

---

# Protocol Notes: Saturated solubility of AGN in the vehicle of the gels (HPLC), with Student's t-test against gel B
# Assay type: physicochemical
# Measurement Context: gel vehicle with propionic acid, hexylene glycol 2%, polysorbate 40 0.0%, poloxamer 407 0.2%; propionic acid for carbomer
# Experimental: To determine the saturated solubility of the drug in the vehicle of each of the 18 gel formulations, solvent systems containing the same ingredients as the gels were prepared. The saturated solubility was determined once in solutions of the vehicle without carbomer and base, and another time by substituting propionic acid for carbomer in order to ease filtration of the solution while keeping the ionic strength of the solution as close to that of the gel as possible. […]
Observed Property: solubility (µg/mL)

compound_string=CCOC(=O)c1ccc(C#Cc2ccc3c(c2)C(C)(C)CCS3)nc1 test_value=73.7
